Reference source for all entries: PubChem BioAssay

PROCEDURE DETAILS: small-molecule microarray binders of probe aShh, primary screen, biochemical, biotinylated probe, 635/667 nm fluorescence (AID 1114);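 also: probe is biotin-labelled aShh protein from a stem cell growth factor screen; measures binding of labelled protein to compounds printed on the slide; score merges feature fluorescence at 667 nm with signal-to-noise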
CONDITION DETAILS: higher = more signal
Can you tell me composite z-score for the items I'm about to list?
Output spec: single numeric token, no unit.

Problem: Given COc1cc(CO)cc(I)c1O[C@H]1C=C(C(=O)NCCO)C[C@@H](N(CC2CCCCC2)C(=O)c2ccc(C(F)(F)F)cc2)[C@@H]1O , state its recorded composite z-score.
Result: -0.2

Problem: Which measured composite z-score value corresponds to COC(=O)[C@]1(CCS(=O)(=O)c2ccccc2)N=C(c2ccc(OCCCO)cc2)O[C@@H]1c1ccccc1CN=[N+]=[N-] ?
Result: -0.0035

Problem: What value of composite z-score has been recorded for this entry: Cc1ccc(S[C@]2(C(=O)NC(C)C)CC(=O)N(C3Cc4ccccc4C3)[C@@H]2c2ccc(CO)cc2I)cc1
Result: -0.291

Problem: # lookup: composite z-score of O=C1O[C@@H](c2ccccc2)[C@@H](c2ccccc2)N2[C@@H](c3ccc(O)cc3)[C@]3(C(=O)Nc4ccc(C#CC5=CCCCC5)cc43)[C@@H](C(=O)N3CCN(c4ncccn4)CC3)[C@H]12
Result: 0.0756

Problem: Fill in: composite z-score of COC(=O)C[C@H]1O[C@]2(C(=O)N(C)c3ccccc32)[C@@H](C)[C@@H]1[Si](C)(C)c1ccc(C)cc1 is ___
Result: -0.393

Problem: Which composite z-score reading was recorded for the compound CC=CC(O)C1C=CC2C(=O)N(c3ccccc3)C(=O)C2N1Nc1ccc([N+](=O)[O-])cc1 (stereo not given) ?
Result: 0.0469

Problem: Data request, read-out composite z-score, for Cc1ccc(F)cc1S(=O)(=O)N[C@@H]1CCN(Cc2ccc(OC(C)C)cc2)C1
Result: -0.153

Problem: Item O=C(NC1CC1)[C@@H]1c2ccccc2C(=O)N(Cc2ccccc2)[C@H]1c1ccc(CO)cc1 has what recorded composite z-score?
Result: 0.0099

Problem: Query: composite z-score; subject: COCC(=C=CC[C@H](O)c1cccc(OCCO)c1)C[C@H](O)c1ccccn1
Result: 0.0952

Problem: // query composite z-score value for entry C=C(CCCC)C(=O)CC[C@@H](OC(=O)c1ccccc1-c1ccccc1C(=O)O)c1cccc(OCCO)c1
Result: -0.0709

Problem: Query (compound): C=CC[C@@]1(C(=O)O)N=C(c2ccc(OCCCO)cc2)O[C@@H]1c1ccccc1 ; field requested: composite z-score
Result: 0.265

Problem: Given C=CCN1C(=O)[C@@]2(O[C@@H](CCn3cc([C@H](O)c4ccccc4)nn3)[C@H]([Si](C)(C)c3ccc(OC)cc3)[C@H]2C)c2ccccc21 , state its recorded composite z-score.
Result: -0.0769

Problem: So what's the measured composite z-score for this one? C=C(COC)/C(=C/C[C@@H](OC(=O)c1ccncc1)c1ccc(CO)o1)c1cnc2ccccc2c1
Result: 0.365

Problem: Form field: reported composite z-score of CCOc1cc(C(O)C2C=CC3C(=O)N(C4CCCCC4)C(=O)C3N2Nc2ccc(OC)cc2)ccc1O (stereo not given)
Result: 0.06

Problem: // returns reported composite z-score for input COc1ccc([Si](C)(C)[C@@H]2[C@@H](CCO)O[C@]3(C(=O)N(Cc4cccc(N5C(=O)c6cccc7cccc5c67)c4)c4ccccc43)[C@H]2C)cc1
Result: 0.0815

----------
I'd be grateful if you could share measured composite z-score for these entries.
Test system: Lefty1
PROCEDURE DETAILS: Lefty1 binders on small-molecule microarrays, primary screen, biochemical, small-molecule microarray, 635/667 nm fluorescence (AID 1139)
CONDITION DETAILS: small-molecule microarray binding, fluorescence 635/667; higher = more signal
Respond numerically, and do not add a unit to the figure.

Problem: // lookup composite z-score for CCOC(=O)C[C@H]1[C@H](OC(=O)Cc2ccc3c(c2)OCO3)[C@@H](NC(=O)C2CCCCC2)c2cc(OCCCO)ccc2N1C(=O)c1ccc2ccccc2n1
Result: 0.816

Problem: Entry under review: COc1cc2c(cc1OC)CN(C(=O)[C@@H]1[C@H]3C(=O)O[C@H](c4ccccc4)[C@H](c4ccccc4)N3[C@H](c3ccccc3OCCO)[C@@]13C(=O)Nc1ccc(C#CC4(O)CCCCCC4)cc13)CC2 . Reported composite z-score?
Result: 0.895

Problem: # composite z-score lookup, item CC=CC(O)C1C=CC2C(=O)N(C)C(=O)C2N1Nc1ccc([N+](=O)[O-])cc1[N+](=O)[O-] (centres undefined)
Result: 0.0657

Problem: What does the record list as composite z-score for C[C@]1(C(=O)NC2CC2)c2ccccc2C(=O)N(Cc2ccc(OC(F)(F)F)cc2)[C@H]1c1ccc(CO)cc1 ?
Result: -0.858

Problem: Any idea what its composite z-score is? The compound is O=C1OC[C@@H](c2ccccc2)N2CC(/C=C/c3ccccc3)=CC12 (some centres undefined)
Result: -1.58

Problem: State the recorded composite z-score for this entry: C=CC[C@@]1(C(=O)N2CCCCC2)N=C(c2ccc(OCCCO)cc2)O[C@@H]1c1ccccc1
Result: -0.034

Problem: Could you share which composite z-score value was measured for O=C(O)[C@]1(Cc2ccccc2)N=C(c2ccc(OCCCO)cc2)O[C@@H]1c1ccccc1 ?
Result: -0.296

Problem: GET /values?readout=composite z-score&item= C[C@]1(C(=O)O)c2ccccc2C(=O)N(Cc2ccccc2)[C@H]1c1ccc(CO)cc1
Result: -2.05

Problem: Consider the compound C[C@H]1ON(c2ccc(C(=O)OC(C)(C)C)cc2)[C@@H](c2ccc(O)cc2)[C@@H]1C(=O)N1C(=O)OC[C@@H]1c1ccccc1 and give its measured composite z-score.
Result: 0.724

Problem: Any idea what composite z-score was measured for O=C(CS)NCCCCCCNC(=O)[C@@H]1C[C@@H]2C(=O)N3CCC[C@H]3C(=O)N2[C@@H]1c1cccc(OCCO)c1 ?
Result: 0.361

Problem: For CCOC(=O)C[C@H]1[C@H](OC(=O)c2ccc(-c3ccccc3)cc2)[C@@H](NC(=O)c2ccc3ccccc3n2)c2cc(OCCCO)ccc2N1C(=O)c1ccccc1 , what is its reported composite z-score?
Result: 0.815

Problem: Name the recorded composite z-score for CC(C)CCC[C@@H](C)[C@H]1CC[C@@]2(C)C3=C(CC[C@]12C)[C@@]1(C)CC[C@H](OC(=O)c2ccc(Br)cc2)C(C)(C)C1CC3 (some centres undefined) .
Result: 0.573

Problem: Requested field: composite z-score. Item: COc1ccc([Si](C)(C)[C@H]2[C@H](CC(=O)N3Cc4ccccc4C[C@H]3CO)O[C@@]3(C(=O)N(Cc4cccc(N5CCCCC5=O)c4)c4ccccc43)[C@@H]2C)cc1
Result: 1.53

Problem: Could you tell me which composite z-score is on file for C=C(COC)/C(=C/C[C@@H](OC(=O)c1ccncc1)c1ccc(CO)o1)c1cnc2ccccc2c1 ?
Result: 1.67

Problem: Dear colleague, I am looking for the recorded composite z-score of the following compound: NC(=O)NCC#Cc1ccc2c(c1)[C@]1(C(=O)N2)[C@H](c2ccc(O)cc2)N2[C@H](c3ccccc3)[C@H](c3ccccc3)OC(=O)[C@H]2[C@@H]1C(=O)Nc1nc2ccccc2s1
Result: 0.9

Problem: What value of composite z-score has been recorded for this entry: C=CCOC(=O)[C@@H]1[C@H]2C(=O)O[C@H](c3ccccc3)[C@H](c3ccccc3)N2[C@H](c2ccc(OCCOC(=O)[C@H]3C[C@H]4C(=O)N[C@@H](CC(C)C)C(=O)N4[C@H]3c3ccc(O)cc3)cc2)[C@@]12C(=O)Nc1ccc(I)cc12
Result: 1.52

Problem: Reported composite z-score, compound CCOC(=O)C[C@H]1[C@H](OC(=O)Cc2ccc3c(c2)OCO3)[C@@H](NC(=O)Cc2ccc(OC)cc2)c2cc(OCCCO)ccc2N1C(=O)c1ccccc1 : ____
Result: 0.389

Problem: Please report the recorded composite z-score for C[C@]1(C(=O)NCCN2CCOCC2)c2ccccc2C(=O)N(Cc2ccc(OC(F)(F)F)cc2)[C@H]1c1ccc(CO)cc1 .
Result: -0.355

Problem: I have this compound here, COc1cc2c(cc1O)C(C)N(Cc1cc3c(cc1Br)OCO3)CC2 (centres undefined) , and I need its recorded composite z-score.
Result: -0.46

Problem: Endpoint output: composite z-score of CC(C)(C)OC(=O)CC[C@]1(C(=O)NCCN2CCOCC2)N=C(c2ccc(OCCCO)cc2)O[C@H]1c1ccccc1 . Value?
Result: -0.964

Problem: I am curious: what composite z-score value has been reported for CN1C(=O)C2C=CC(C(O)c3c(F)cccc3Cl)N(Nc3ccccc3)C2C1=O (centres undefined) ?
Result: -0.309

Problem: Find the recorded composite z-score belonging to C[n+]1ccc(CCCO)cc1 and report it.
Result: 1.36

Problem: Need composite z-score, item NCCCCCNC(=O)[C@@H]1C[C@@H]2C(=O)N[C@@H](CCCCN)C(=O)N2[C@@H]1c1cccc(OCCO)c1
Result: 1.54

Problem: What value of measured composite z-score is listed for [N-]=[N+]=NCc1ccccc1C[C@@]1(C(=O)N2CCCCC2)N=C(c2ccc(OCCCO)cc2)O[C@@H]1c1ccccc1N=[N+]=[N-] ?
Result: -0.162
